# target or system: T1, human IL-18BP (human, UniProt O95998 31-194)
# T1 construct: UniProt printed as 095998; also called hIL-18BP
# T1 sequence: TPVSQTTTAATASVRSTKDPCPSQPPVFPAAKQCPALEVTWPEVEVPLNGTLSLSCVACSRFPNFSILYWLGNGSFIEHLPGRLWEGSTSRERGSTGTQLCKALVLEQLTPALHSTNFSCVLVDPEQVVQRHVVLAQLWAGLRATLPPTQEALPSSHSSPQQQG
# assay method text: BLI, apparent KD
Overview of recorded Kd for various binders
measured attribute: Kd (nM)

binder	recorded value
SA301a HC-N100bE (antibody, name in Kabat numbering, V domains shown, IgG1 kappa) VH: QVQLQESGPGLVKPSQTLSLTCTVSGYSITSDYNSHWIRQPPGKGLEWIGYIHYSGSTNYNPSLKSRVTISRDTSKNQFSLKLSSVTAADTAVYYCARNYGSIYVEYFDYWGQGTLVTVSS VL: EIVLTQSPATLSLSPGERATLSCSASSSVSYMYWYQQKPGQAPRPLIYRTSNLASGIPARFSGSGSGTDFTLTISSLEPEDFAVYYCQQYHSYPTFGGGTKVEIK	0.31
SA301a HC-I99D (antibody, name in Kabat numbering, V domains shown, IgG1 kappa) VH: QVQLQESGPGLVKPSQTLSLTCTVSGYSITSDYNSHWIRQPPGKGLEWIGYIHYSGSTNYNPSLKSRVTISRDTSKNQFSLKLSSVTAADTAVYYCARNYGSDYVNYFDYWGQGTLVTVSS VL: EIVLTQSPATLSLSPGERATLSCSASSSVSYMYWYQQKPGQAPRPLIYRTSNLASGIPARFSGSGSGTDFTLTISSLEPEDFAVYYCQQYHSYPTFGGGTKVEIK	1.01
SA301a HC-V100aP (antibody, name in Kabat numbering, V domains shown, IgG1 kappa) VH: QVQLQESGPGLVKPSQTLSLTCTVSGYSITSDYNSHWIRQPPGKGLEWIGYIHYSGSTNYNPSLKSRVTISRDTSKNQFSLKLSSVTAADTAVYYCARNYGSIYPNYFDYWGQGTLVTVSS VL: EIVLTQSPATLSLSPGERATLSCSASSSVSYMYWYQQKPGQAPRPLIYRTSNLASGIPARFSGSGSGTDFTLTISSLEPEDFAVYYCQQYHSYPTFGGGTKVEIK	0.49
